B1: TPR t1 (parent)
chain: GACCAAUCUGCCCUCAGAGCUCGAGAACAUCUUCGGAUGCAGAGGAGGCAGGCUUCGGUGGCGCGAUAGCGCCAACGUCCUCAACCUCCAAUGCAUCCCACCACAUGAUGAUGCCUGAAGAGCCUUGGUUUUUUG

variants of: B1; assay: polymerase ribozyme fitness, log enrichment relative to wild type (log ratio); higher = more active; in vitro selection for triplet polymerase activity
Where polymerase ribozyme fitness (log ratio) equals or exceeds -3, the correct label is 1; where it does not, the label is -1.

>>> answerlabel("C8A G10U U14G C56A C64U U78A C86A C101U")
1
>>> answerlabel("C13U C85U")
1
>>> answerlabel("A6U A29G G44A C82A")
1
>>> answerlabel("A18C G19U G48A G58C C62G C124A")
-1
>>> answerlabel("C62A A90C U112A")
1
>>> answerlabel("G36U C76A C98G U109C C114G")
-1
>>> answerlabel("C70G C99A G113A")
-1
